TEST: Acute lethality and toxicity, oral administration (gastric probe)
Type: in vivo, Mus musculus
CONDITION_SUMMARY: mouse, in vivo, po, 8000 mg/kg, M. musculus F; oral; 8000 mg/kg; read-out: % mortality at following times after administration 24 h
Each entry below lists one item and its recorded mortality at 24 h value.
VALUE_KIND: mortality at 24 h (%)

[[record]]
compound = "C[C@H](CCC(=O)O)[C@H]1CC[C@H]2[C@@H]3[C@H](O)C[C@@H]4C[C@H](O)CC[C@]4(C)[C@H]3CC[C@]12C [Chenodeoxycholic acid]"
value_kind = "mortality at 24 h"
assay_value = 80

[[record]]
compound = "C[C@H](CCC(=O)O)[C@H]1CC[C@H]2[C@@H]3[C@@H](O)C[C@@H]4C[C@H](O)CC[C@]4(C)[C@H]3CC[C@]12C [Ursodeoxycholic acid]"
value_kind = "mortality at 24 h"
assay_value = 60


###

TEST: Acute lethality and toxicity, oral administration (gastric probe)
Format: in vivo, Mus musculus
CONDITION_SUMMARY: mouse, in vivo, po, 4000 mg/kg, M. musculus F; oral; 4000 mg/kg; read-out: % mortality at following times after administration 7 days
mortality at 168 h values for the molecules below.
VALUE_KIND: mortality at 168 h

[[record]]
chemical_string = "C[C@H](CCC(=O)O)[C@H]1CC[C@H]2[C@@H]3[C@@H](O)C[C@@H]4C[C@H](O)CC[C@]4(C)[C@H]3CC[C@]12C"
value_kind = "mortality at 168 h"
assay_value = "20%"

[[record]]
chemical_string = "C[C@H](CCC(=O)O)[C@H]1CC[C@H]2[C@@H]3[C@H](O)C[C@@H]4C[C@H](O)CC[C@]4(C)[C@H]3CC[C@]12C"
value_kind = "mortality at 168 h"
assay_value = "30%"


###

TEST: Acute lethality and toxicity, oral administration (gastric probe)
Assay type: in vivo, rat
CONDITION_SUMMARY: rat, in vivo, po, 2000 mg/kg, Rat F; oral; 2000 mg/kg; read-out: % mortality at following times after administration 7 days
Experimental: Unless otherwise specified, the research was carried out using: a) Mg-UCD capsules as such; b) the powdered contents of Mg-UCD capsules; CDCA (chenodeoxycholic acid) and UDCA (ursodeoxycholic acid) as pure substance which in all cases was partly dissolved and partly suspended under warm conditions (T = 30°C) in 10% gum arabic mucilage (so as to administer 10-40 ml of liquid per kg orally). […] The LD50 was determined 7 days after administration using the probit method.
Each entry below lists one item and its recorded mortality at 168 h value.
VALUE_KIND: mortality at 168 h

[[record]]
chemical_string = "C[C@H](CCC(=O)O)[C@H]1CC[C@H]2[C@@H]3[C@@H](O)C[C@@H]4C[C@H](O)CC[C@]4(C)[C@H]3CC[C@]12C"
assay_value = "0%"

[[record]]
chemical_string = "C[C@H](CCC(=O)O)[C@H]1CC[C@H]2[C@@H]3[C@H](O)C[C@@H]4C[C@H](O)CC[C@]4(C)[C@H]3CC[C@]12C"
assay_value = "0%"


###

TEST: Acute lethality and toxicity, oral administration (gastric probe)
Type: in vivo, rat
CONDITION_SUMMARY: rat, in vivo, po, 8000 mg/kg, Rat M; oral; 8000 mg/kg; read-out: % mortality at following times after administration 7 days
VALUE_KIND: mortality at 168 h (%)

[[record]]
chemical_string = "C[C@H](CCC(=O)O)[C@H]1CC[C@H]2[C@@H]3[C@H](O)C[C@@H]4C[C@H](O)CC[C@]4(C)[C@H]3CC[C@]12C"
value_kind = "mortality at 168 h"
unit = "%"
assay_value = 80

[[record]]
chemical_string = "C[C@H](CCC(=O)O)[C@H]1CC[C@H]2[C@@H]3[C@@H](O)C[C@@H]4C[C@H](O)CC[C@]4(C)[C@H]3CC[C@]12C"
value_kind = "mortality at 168 h"
unit = "%"
assay_value = 70


###

Reported mortality at 168 h values for the following compounds.
TEST: Acute lethality and toxicity, oral administration (gastric probe)
Assay type: in vivo, Mus musculus
CONDITION_SUMMARY: mouse, in vivo, po, 8000 mg/kg, M. musculus M; oral; 8000 mg/kg; read-out: % mortality at following times after administration 7 days
VALUE_KIND: mortality at 168 h (%)

[[record]]
chemical_string = "C[C@H](CCC(=O)O)[C@H]1CC[C@H]2[C@@H]3[C@H](O)C[C@@H]4C[C@H](O)CC[C@]4(C)[C@H]3CC[C@]12C"
assay_value = 80

[[record]]
chemical_string = "C[C@H](CCC(=O)O)[C@H]1CC[C@H]2[C@@H]3[C@@H](O)C[C@@H]4C[C@H](O)CC[C@]4(C)[C@H]3CC[C@]12C"
assay_value = 80


###

TEST: Acute lethality and toxicity, oral administration (gastric probe)
Format: in vivo, Mus musculus
CONDITION_SUMMARY: mouse, in vivo, po, 8000 mg/kg, M. musculus M; oral; 8000 mg/kg; read-out: % mortality at following times after administration 24 h
# mortality at 24 h per entry
VALUE_KIND: mortality at 24 h (%)

[[record]]
chemical_string = "C[C@H](CCC(=O)O)[C@H]1CC[C@H]2[C@@H]3[C@@H](O)C[C@@H]4C[C@H](O)CC[C@]4(C)[C@H]3CC[C@]12C"
value_kind = "mortality at 24 h"
assay_value = 60

[[record]]
chemical_string = "C[C@H](CCC(=O)O)[C@H]1CC[C@H]2[C@@H]3[C@H](O)C[C@@H]4C[C@H](O)CC[C@]4(C)[C@H]3CC[C@]12C"
value_kind = "mortality at 24 h"
assay_value = 80


###

TEST: Acute lethality and toxicity, oral administration (gastric probe)
Format: in vivo, Mus musculus
CONDITION_SUMMARY: mouse, in vivo, po, 4000 mg/kg, M. musculus M; oral; 4000 mg/kg; read-out: % mortality at following times after administration 24 h
Protocol: Unless otherwise specified, the research was carried out using: a) Mg-UCD capsules as such; b) the powdered contents of Mg-UCD capsules; CDCA (chenodeoxycholic acid) and UDCA (ursodeoxycholic acid) as pure substance which in all cases was partly dissolved and partly suspended under warm conditions (T = 30°C) in 10% gum arabic mucilage (so as to administer 10-40 ml of liquid per kg orally). […] The LD50 was determined 7 days after administration using the probit method.
mortality at 24 h reference
VALUE_KIND: mortality at 24 h (%)

[[record]]
chemical_string = "C[C@H](CCC(=O)O)[C@H]1CC[C@H]2[C@@H]3[C@@H](O)C[C@@H]4C[C@H](O)CC[C@]4(C)[C@H]3CC[C@]12C"
value_kind = "mortality at 24 h"
unit = "%"
assay_value = 20

[[record]]
chemical_string = "C[C@H](CCC(=O)O)[C@H]1CC[C@H]2[C@@H]3[C@H](O)C[C@@H]4C[C@H](O)CC[C@]4(C)[C@H]3CC[C@]12C"
value_kind = "mortality at 24 h"
unit = "%"
assay_value = 30


###

TEST: Acute lethality and toxicity, oral administration (gastric probe)
Assay type: in vivo, rat
CONDITION_SUMMARY: rat, in vivo, po, 8000 mg/kg, Rat M; oral; 8000 mg/kg; read-out: % mortality at following times after administration 24 h
Experimental: Unless otherwise specified, the research was carried out using: a) Mg-UCD capsules as such; b) the powdered contents of Mg-UCD capsules; CDCA (chenodeoxycholic acid) and UDCA (ursodeoxycholic acid) as pure substance which in all cases was partly dissolved and partly suspended under warm conditions (T = 30°C) in 10% gum arabic mucilage (so as to administer 10-40 ml of liquid per kg orally). […] The LD50 was determined 7 days after administration using the probit method.
VALUE_KIND: mortality at 24 h (%)

[[record]]
compound = "C[C@H](CCC(=O)O)[C@H]1CC[C@H]2[C@@H]3[C@@H](O)C[C@@H]4C[C@H](O)CC[C@]4(C)[C@H]3CC[C@]12C [Ursodeoxycholic acid]"
unit = "%"
assay_value = 70

[[record]]
compound = "C[C@H](CCC(=O)O)[C@H]1CC[C@H]2[C@@H]3[C@H](O)C[C@@H]4C[C@H](O)CC[C@]4(C)[C@H]3CC[C@]12C [Chenodeoxycholic acid]"
unit = "%"
assay_value = 80


###

TEST: Acute lethality and toxicity, oral administration (gastric probe)
Assay type: in vivo, rat
CONDITION_SUMMARY: rat, in vivo, po, 2000 mg/kg, Rat F; oral; 2000 mg/kg; read-out: % mortality at following times after administration 24 h
mortality at 24 h listing for selected compounds.
VALUE_KIND: mortality at 24 h (%)

[[record]]
chemical_string = "C[C@H](CCC(=O)O)[C@H]1CC[C@H]2[C@@H]3[C@@H](O)C[C@@H]4C[C@H](O)CC[C@]4(C)[C@H]3CC[C@]12C"
value_kind = "mortality at 24 h"
assay_value = 0

[[record]]
chemical_string = "C[C@H](CCC(=O)O)[C@H]1CC[C@H]2[C@@H]3[C@H](O)C[C@@H]4C[C@H](O)CC[C@]4(C)[C@H]3CC[C@]12C"
value_kind = "mortality at 24 h"
assay_value = 0


Origin of measurements: patent EP0092073A1
